MIC E. f. 180-1 overview
# Tested on: E. f. 180-1
# protocol-text: standard broth micro-dilution MIC
# Format: cell-based
# applied-conditions: Table 2B; strain 180-1

- compound: "CC(=O)NC1C(OC2c3ccc(c(Cl)c3)Oc3cc4cc(c3OC3OC(CO)C(O)C(O)C3NCc3ccc(-c5ccccc5)cc3)Oc3ccc(cc3Cl)CC3NC(=O)C(NCc5ccc(-c6ccccc6)cc5)c5ccc(O)c(c5)Oc5cc(O)cc(c5)C(NC3=O)C(=O)NC4C(=O)NC3C(=O)NC2C(=O)NC(C(=O)O)c2cc(O)cc(OC4OC(CO)C(O)C(O)C4O)c2-c2cc3ccc2O)OC(CO)C(O)C1O.O=C(O)C(F)(F)F (stereo not drawn) [Example 1]"
  MIC E. f. 180-1: "≤ .06 µg/mL"
- compound: "CC(=O)NC1C(OC2c3ccc(c(Cl)c3)Oc3cc4cc(c3OC3OC(CO)C(O)C(O)C3NCc3ccc(Oc5ccccc5)cc3)Oc3ccc(cc3Cl)CC3NC(=O)C(NCc5ccc(Oc6ccccc6)cc5)c5ccc(O)c(c5)Oc5cc(O)cc(c5)C(NC3=O)C(=O)NC4C(=O)NC3C(=O)NC2C(=O)NC(C(=O)O)c2cc(O)cc(OC4OC(CO)C(O)C(O)C4O)c2-c2cc3ccc2O)OC(CO)C(O)C1O (stereo not drawn) [Example 10]"
  MIC E. f. 180-1: "≤ .06 µg/mL"
- compound: "CCCCc1ccc(CNC2C(=O)NC3Cc4ccc(c(Cl)c4)Oc4cc5cc(c4OC4OC(CO)C(O)C(O)C4NCc4ccc(CCCC)cc4)Oc4ccc(cc4Cl)C(OC4OC(CO)C(O)C(O)C4NC(C)=O)C4NC(=O)C(NC(=O)C5NC(=O)C(NC3=O)c3cc(O)cc(c3)Oc3cc2ccc3O)c2ccc(O)c(c2)-c2c(OC3OC(CO)C(O)C(O)C3O)cc(O)cc2C(C(=O)O)NC4=O)cc1 (stereo not drawn) [Example 5]"
  MIC E. f. 180-1: "≤ .06 µg/mL"
